Provide the recorded glycan array binding signal (z-score) for the entries that follow.
molecular target: GlcNAc(a1-6)Gal(b1-4)GlcNAc; assay: glycan array binding signal (z-score within array); higher = stronger binding; conditions: glycan notation: IUPAC condensed, linker removed
The full list was thinned out, with the strongest signals kept by preference.
Answers are plain numbers.

EPL1 (Trichoderma atroviride), A0PCX2 (protein) MQLSNLFKLALFTAAVSADTVSYDTGYDDASRSLTVVSCSDGTNGLITRYHWQTQGQIPRFPYIGGAQAVAGWNSPNCGTCWKLTYSGKTIYVLAIDHTAAGFNIGLDAMNALTNGNAVALGRVSATASQVAVSNCGL ... -0.234
KILRGVCKKIMRTFLRRISKDILTGKK [NK2 (Sus scrofa)] ... -1.07
Gal 3 (Canis lupus) (protein) MADSFSLNDALSGSGNPNPQGWPGPWGNQPAGAGGYPGASYPGAYPGQAPPGGYPGQAPPGGYPGQAPPGGYPGQAPPGGYPGQAPPGGYPGQAPPGTYPGPTAPAYPGPTAPGTQPGQPSGPGAYPPPGQPSAPGAYPAAGPFGIPAGPLTVPYDLPLPGGVKPRMLITILGTVRPSANRLALDFKRGNDVAFHFNPRFNEDNKRVIVCNTKLDNIWGKEERQAAFPFESGKPFKIQVLVESDHFKVAVNDAHLLQYNHRMKNLPEISKLGISGDIDLTSASYAMI ... -0.252
SLR2P3F12 (Tachypleus tridentatus), TAL2_TACTR (protein) MEKGTPPTHDSDNWMGRAKKIGNGGWNQFQFLFFDPNGYLYAVSKDKLYKASPPQSDTDNWIARATEIGSGGWSGFKSLFFHPNGYLYAVHGQRLYKALPPVSNQD ... 13.2

Give one value of glycan array binding signal (z-score) per listed binder.
1. Pp2-A2 (Arabidopsis thaliana), Q07098 (protein) MPSNGDLDRQIEQLMECKPLSEADVRTLCDQARAILVEEYNVQPVKCPVTVCGDIHGQFYDLIELFRIGGNAPDTNYLFMGDYVDRGYYSVETVSLLVALKVRYRDRLTILRGNHESRQITQVYGFYDECLRKYGNANVWKYFTDLFDYLPLTALIESQVFCLHGGLSPSLDTLDNIRSLDRIQEVPHEGPMCDLLWSDPDDRCGWGISPRGAGYTFGQDIAAQFNHNNGLSLISRAHQLVMEGFNWCQDKNVVTVFSAPNYCYRCGNMAAILEIGENMEQNFLQFDPAPRQVEPDTTRKTPDYFL
2. TbCVNHOa (Tuber borchii), Q5MK11 (protein) GSHIGPYMSYADSSRNAVLTNGGRTLRAECRNADGNWVTSELDLDTCIGNPNGFLGWGMQNFSHSSEDIKLEEGGRKLTCRPKTVDGGFRERQGIDLNRIQNVNGRLVFQ
3. MRCL (Homo sapiens), NP_872425.1 (protein) ATKVHFPFHTCDLRIDGDCFMVSSEADTYYRARMKCQRKGGVLAQIKSQKVQDILAFYLGRLETTNEVTDSDFETRNFWIGLTYKTAKDSFRWATGEHQAFTSFAFGQPDNHGLVWLSAAMGFGNCVELQASAAFNWNNQRCKTRNRYICQFAQEHISRWGPGS
4. NcCVNHO (Neurospora crassa), Q7S6U4 (protein) MSFHVTAEDARIEVRDNRTILFARLRREDGEWNDASYELDQIIGNNDGHFQWGGQNFTETAEDIRFHPKEGAAEQPILRARLRDCNGEFHDRDVNLTEIVENVNGEFQAKF
5. Gal 3 (Homo sapiens), P17931 (protein) MADNFSLHDALSGSGNPNPQGWPGAWGNQPAGAGGYPGASYPGAYPGQAPPGAYPGQAPPGAYHGAPGAYPGAPAPGVYPGPPSGPGAYPSSGQPSAPGAYPATGPYGAPAGPLIVPYNLPLPGGVVPRMLITILGTVKPNANILDFQRGNDVAFHFNPRFNENNRRVIVCNTKLDNNWGREERQSVFPFESGKPFKIQVLVEPDHFKVAVNDAHLLQYNHRVKKLNEISKLGISGDIDLTSASYTMI
6. UEA-I (Ulex europaeus), P22972 (protein) SDDLSFKFKNFSQNGKDLSFQGDASVIETGVLQLNKVGNNLPDETGGIARYIAPIHIWNCNTGEVASFITSFSFFMETSANPKAATDGLTFFLAPPDSPLRRAGGYFGLFEDTKDNDSSYQTVAVEFDTIGSPVNFDDPGFPHIGIDVNRVKSINAERWNKRYGLNNVANVEIIYEASSKTLTASLTYPSDQTSISVTSIVDLKEILPEWVSVGFSGGTYIGRQATHEVLNWYFTSNLIN

[-0.835, -0.292, 5.62, -0.245, -0.392, -0.176]

Batch lookup, glycan array binding signal (z-score) per entry.
1. DC-SIGN (Canis lupus), XP_853402 (protein) AGLCRPCPWKWELFQESCYFFSQTQNTWKESISACQNLRAQLVIINSTEEQKFLKSWNTRNNQRTWIGLSDHHNEGSWKWVDNTPLQLSFWKEGEPNNHGDEDCVELYSDGWNDNRCSTENFWICKKPSSPCPGPGLNDIFEAQKIEWHE
2. CGL (Crenomytilus grayanus), H2FH31 (protein) MTTFLIKHKASGKFLHPYGGSSNPANNTKLVLHSDIHERMYFQFDVVDERWGYIKHVASGKIVHPYGGQANPPNETNMVLHQDRHDRALFAMDFFNDNIMHKGGKYIHPKGGSPNPPNNTETVIHGDKHAAMEFIFVSPKNKDKRVLVYA
3. CFEM-PPl (Pichia pastoris), F2QPV1 (protein) AVATPPACLLACAAEVVKESSDCDALNNIQCICENEGSAIHACLESTCPDGLSSTALQSFEDVCESVGTEANLDE
4. R410P1E11 (Tachypleus tridentatus), TAL2_TACTR (protein) MEKGTPPTHDSDNWMGRAKEIGNGGWDQFQFLFFDPNGYLYAVSNDKLYKASPPQSDTDNWIARATEIGSGGWSGFKFLFFHPNGYLYAVRGQRFYKALPPVSNQD

1: -0.105; 2: -0.356; 3: 1.68; 4: 10.1
